Origin of values: ChEMBL document CHEMBL4680082

Give measured Emax for each item. Keep answers brief.
# assayedTarget: 5-hydroxytryptamine receptor 2A (Homo sapiens, UniProt P28223)
# Sequence (P28223 whole entry): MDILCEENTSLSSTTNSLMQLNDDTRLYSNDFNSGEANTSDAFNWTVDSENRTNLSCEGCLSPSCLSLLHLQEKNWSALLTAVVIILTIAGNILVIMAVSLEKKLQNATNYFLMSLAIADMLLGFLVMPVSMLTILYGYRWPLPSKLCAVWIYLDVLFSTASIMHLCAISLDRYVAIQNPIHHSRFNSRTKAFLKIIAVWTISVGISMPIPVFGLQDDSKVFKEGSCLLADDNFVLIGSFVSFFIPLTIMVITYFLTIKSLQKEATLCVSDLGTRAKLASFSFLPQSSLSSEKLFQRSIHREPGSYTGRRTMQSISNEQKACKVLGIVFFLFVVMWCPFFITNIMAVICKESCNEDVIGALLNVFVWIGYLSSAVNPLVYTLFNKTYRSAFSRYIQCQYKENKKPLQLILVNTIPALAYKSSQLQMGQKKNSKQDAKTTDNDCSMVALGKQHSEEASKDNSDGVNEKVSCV
# testSummary: Agonist activity at human 5-HT2A receptor expressed in human Flp-In-293 cells assessed as induction of calcium flux incubated for 1 hr by Fluo-4 direct dye based FLIPR assay relative to 5-HT
# Format: functional, cell-based
# experimentalConditions: filed as agonist
Answers are plain numbers, in %.

smilesString	observedResult
COc1ccc2c(c1[C@@H]1C[C@H]1CN)CCO2	66
NC[C@H]1C[C@@H]1c1c(OCCF)ccc2occc12	98
COc1ccc2occc2c1[C@@H]1C[C@H]1CN	66
NC[C@H]1C[C@@H]1c1c(OCCF)ccc2c1CCO2	63
CCOc1ccc2c(c1[C@H]1C[C@@H]1CN)CCO2	81

Report Emax for each item below.
1. COc1ccc2c(c1[C@H]1C[C@@H]1CN)CCO2
2. COc1ccc2occc2c1[C@H]1C[C@@H]1CN
3. CCOc1ccc2occc2c1[C@H]1C[C@@H]1CN
4. CC(C)Oc1ccc2occc2c1[C@H]1C[C@@H]1CN
5. NC[C@@H]1C[C@H]1c1c(OCCF)ccc2c1CCO2

Reply |
90
86
74
79
55
